# method: Dynamic solubility test in biological media and water
# Format: physicochemical
# conditions.used: fassgf or other biorelevant, thermodynamic from solid; FaSSGF, pH 1.6, 0.5 h
recorded.metric: solubility at 0.5 h

Qu. Requested read-out: solubility at 0.5 h. Entry: CN1CCN(C2CCN(c3ccc(Nc4ncc5sc(C(=O)N(C)C)c(C6CCCC6)c5n4)nc3)CC2)CC1 [crystal form A]
Ans. > 5470 µg/mL
